system: HIV-1IIIB; experiment: Syncytia inhibition assay (HIV-1IIIB infected C8166 cells); assay type: cell-based; conditions: CC50 in C8166 cells / EC50 syncytia inhibition
# TI (in vitro therapeutic index, CC50 value/EC50 value) values compiled below
assay readout: TI (in vitro therapeutic index, CC50 value/EC50 value)

{"columns": ["compound", "test system", "value reported"],
 "data": [
  ["COc1cc([N+](=O)[O-])cc(C2=NN(c3ccc(F)cc3)C3C(=O)N(CCc4ccc(F)cc4)C(=O)C23)c1O (stereo not shown)", "HIV-1IIIB", 2.15],
  ["O=C1C2C(c3cccc(O)c3O)=NN(c3ccc(F)cc3)C2C(=O)N1CCc1ccc(F)cc1 (stereo not shown)", "HIV-1IIIB", ">16.37"],
  ["COc1cccc(C2=NN(c3ccc(C)cc3)C3C(=O)N(CCc4ccc(F)cc4)C(=O)C23)c1O (stereo not shown) [15i]", "HIV-1IIIB", ">103.09"],
  ["CCOc1cccc(C2=NN(c3ccc(F)cc3)C3C(=O)N(CCc4ccc(F)cc4)C(=O)C23)c1O (stereo not shown) [10c]", "HIV-1IIIB", ">3.51"]
]}
